system: human plasma kallikrein (Homo sapiens)
Construct: purchased Calbiochem 420307
Sequence (P03952 391-638 limits assumed): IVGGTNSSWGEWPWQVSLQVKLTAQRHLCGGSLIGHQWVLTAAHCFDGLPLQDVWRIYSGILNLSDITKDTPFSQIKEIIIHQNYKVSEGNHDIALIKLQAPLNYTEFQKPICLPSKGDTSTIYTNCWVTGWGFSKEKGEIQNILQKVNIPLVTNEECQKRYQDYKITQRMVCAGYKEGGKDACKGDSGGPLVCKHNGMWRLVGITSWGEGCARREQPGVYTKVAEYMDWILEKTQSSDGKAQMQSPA
Sequence (P03952 20-390 partner limits assumed): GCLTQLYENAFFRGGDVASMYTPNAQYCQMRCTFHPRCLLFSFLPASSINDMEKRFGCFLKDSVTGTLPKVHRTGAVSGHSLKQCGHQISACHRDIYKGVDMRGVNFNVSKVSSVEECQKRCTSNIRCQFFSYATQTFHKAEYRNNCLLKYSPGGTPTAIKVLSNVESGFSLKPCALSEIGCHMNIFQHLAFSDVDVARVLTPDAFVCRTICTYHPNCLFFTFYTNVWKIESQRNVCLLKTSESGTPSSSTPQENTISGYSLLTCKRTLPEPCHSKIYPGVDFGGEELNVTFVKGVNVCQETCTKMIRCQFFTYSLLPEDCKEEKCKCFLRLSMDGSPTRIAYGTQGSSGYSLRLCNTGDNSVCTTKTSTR
experiment.summary: Inhibition of plasma kallikrein, fluorogenic substrate assay
Type: biochemical
Positions of bridges follow the written chain, without caps; N, C: chain ends. No end group written: not given here.
measured.metric: pIC50
One number for each entry, as −log10 of the molar value.

> print(dat)
                             chain.sequence  endpoint.value
1  MHSFCAFKAETGPCRAAHPRWFFNIFTRQCEEFIYGGCEGNQNRFESLEECKKMCTRD (disulfide 5-55, 14-38, 30-51) [SEQ ID NO: 4]            8.52

For every item below, please supply its pIC50.
1. EAMHSFCAFKAYTGPCRAAIIRFFFNIFTRQCEEFIYGGCEGNQNRFESLEECKKMCTRD (disulfide 7-57, 16-40, 32-53) [SEQ ID NO: 28]
2. MHSFCAFKAETGPCRAAMKRFFFNIFTRQCEEFIYGGCEGNQNRFESLEECKKMCTRD (disulfide 5-55, 14-38, 30-51) [SEQ ID NO: 10]
3. EAMHSFCAFKAETGPCRAAHPRWWFNIFTRQCEEFIYGGCEGNQNRFESLEECKKMCTRD (disulfide 7-57, 16-40, 32-53) [SEQ ID NO: 20]
4. EAMHSFCAFKAVTGPCRASFPRWFFNIFTRQCEEFIYGGCEGNQNRFESLEECKKMCTRD (disulfide 7-57, 16-40, 32-53) [SEQ ID NO: 29]

Result:
[8.10, 7.32, 8.70, 7.80]

For every item in the list below, what is its measured pIC50?
1. EAMHSFCAFKASTGPCKARIIRFFFNIFTRQCEEFIYGGCEGNQNRFESLEECKKMCTRD (disulfide 7-57, 16-40, 32-53) [SEQ ID NO: 30]
2. EAMHSFCAFKAVTGPCRAAMKRFWFNIFTRQCEEFIYGGCEGNQNRFESLEECKKMCTRD (disulfide 7-57, 16-40, 32-53) [SEQ ID NO: 31]
3. EAMHSFCAFKAYTGPCKARIIRFFFNIFTRQCEEFIYGGCEGNQNRFESLEECKKMCTRD (disulfide 7-57, 16-40, 32-53) [SEQ ID NO: 25]
4. MHSFCAFKADDGPCRAAHPRWWFNIFTRQCEEFIYGGCEGNQNRFESLEECKKMCTRD (disulfide 5-55, 14-38, 30-51) [SEQ ID NO: 8]

Result:
[8.63, 7.12, 8.93, 9.00]

Please give pIC50, item by item, for the list that follows.
1. EAMHSFCAFKAYTGPCKAAIIRFFFNIFTRQCEEFIYGGCEGNQNRFESLEECKKMCTRD (disulfide 7-57, 16-40, 32-53) [SEQ ID NO: 26]
2. EAMHSFCAFKAVTGPCKARIIRFFFNIFTRQCEEFIYGGCEGNQNRFESLEECKKMCTRD (disulfide 7-57, 16-40, 32-53) [SEQ ID NO: 18]
3. EAMHSFCAFKAETGPCRAAHPRWFFNIFTRQCEEFIYGGCEGNQNRFESLEECKKMCTRD (disulfide 7-57, 16-40, 32-53) [SEQ ID NO: 19]
4. MHSFCAFKADDGPCRAAMKRFFFNIFTRQCEEFIYGGCEGNQNRFESLEECKKMCTRD (disulfide 5-55, 14-38, 30-51) [SEQ ID NO: 7]

Result:
1. 6.71
2. 8.83
3. 8.52
4. 7.96
